Tested on: Plasmodium falciparum
PROTOCOL DETAILS: GSK_TCMDC: Inhibition of Plasmodium falciparum Dd2 in whole red blood cells, using parasite LDH activity as an index of growth. Test compounds present at 2uM
Format: functional
Inhibition by entry:
Reply with just the number (in %).

Study these solved cases before continuing.
| MOLECULE | Inhibition, % |
| --- | --- |
| COc1ccc(OCc2ccccn2)c(C2CCN(CCCCNC(=O)c3ccc(NC(=O)c4ccc(Cl)cc4)cc3)CC2)c1.Cl | 71 |
| O=C(NC1CC1)c1cnc(N2CCC(OCc3ccccc3)CC2)c(Cl)c1.O=C(O)C(F)(F)F | 71 |
| O=C(O)C(F)(F)F.c1ccc2[nH]c(-c3ccc(-c4ccc(CN5CCN(CCN6CCOCC6)CC5)cc4)s3)nc2c1 | 100 |
| COc1ccc2c(=NN=Cc3cccc(C)n3)cc(-c3ccccc3)[nH]c2c1 | 25 |
| CC(C)=CC1C(C(=O)n2c(=N)[nH]c3ccccc32)C1(C)C (stereo not given) | 3 |

Task: May I ask what Inhibition has been recorded for CCOc1cc(C(=O)NCCCN2CCN(c3cccc(Cl)c3)CC2)ccc1-c1nc2cc(Cl)c(F)cc2[nH]1 ?
Result: 19

Task: Need Inhibition of O=C(Nc1ccc(Cn2ncc(N3CCCNCC3)c(Cl)c2=O)cc1)Nc1cccc(C(F)(F)F)c1.O=C(O)C(F)(F)F , thanks.
Result: 30

Task: Data request, read-out Inhibition, for COCc1cc(C)nc2sc(C(=O)Nc3cc(C(C)(C)C)ccc3O)c(N)c12
Result: 57

Task: Any idea what Inhibition was measured for Nc1ccc(-c2nc3cc(C4=N[C@H]5CCCC[C@H]5N4)ccc3o2)cc1[N+](=O)[O-] ?
Result: 33

Task: Quick check: Inhibition of CN(C)C(=O)CCCn1c(CNCCCNc2cc(=O)c3ccccc3[nH]2)cc2c(Cl)cc(Cl)cc21.Cl ?
Result: 0
